Data origin, for the record: patent US20260242478A1

TARGET_UNDER_TEST: T1, PSMA Fab (biotinylated (site not stated))
T1 construct: Biotinylated PSMA Fab captured on neutravidin coated plates in the phage ELISA; also called Anti-PSMA Fab; 006 PSMA Fab
TEST_DETAILS: phage ELISA, captured anti-PSMA Fab pre-incubated with PSMA antigen as competitor, anti-M13 HRP detection
Where no end group is shown, it is not given here.
EXPERIMENTAL_READOUT: Phage binding ELISA signal, Anti-PSMA Fab in presence of PSMA antigen

// below: answered binders
binder="GDVYCKPAWMCDGF (cysteine pairing not given here; also: peptide displayed as fusion to phage pIII, Clonal phage of the peptide-180 optimisation library, tested as crude phage supernatant; not shown: bacteriophage pIII coat protein to which the peptide is fused for display) [Phage-2972]" recorded_measurement=0.0762
binder="GVPMCVPDWMCHGL (cysteine pairing not given here; also: peptide displayed as fusion to phage pIII, Clonal phage of the peptide-180 optimisation library, tested as crude phage supernatant; not shown: bacteriophage pIII coat protein to which the peptide is fused for display) [Phage-2975]" recorded_measurement=0.073
binder="PGPLCVPEWMCIGF (cysteine pairing not given here; also: peptide displayed as fusion to phage pIII, Clonal phage of the peptide-180 optimisation library, tested as crude phage supernatant; not shown: bacteriophage pIII coat protein to which the peptide is fused for display) [Phage-2964]" recorded_measurement=0.114
binder="VSPLCVPSWMCVGF (cysteine pairing not given here; also: peptide displayed as fusion to phage pIII, Clonal phage of the peptide-180 optimisation library, tested as crude phage supernatant; not shown: bacteriophage pIII coat protein to which the peptide is fused for display) [Phage-2973]" recorded_measurement=0.108

Next item in the queue.
Entry LFKMCQPSWMCDGF (cysteine pairing not given here; also: peptide displayed as fusion to phage pIII, Clonal phage of the peptide-180 optimisation library, tested as crude phage supernatant; not shown: bacteriophage pIII coat protein to which the peptide is fused for display) [Phage-2965] has what Phage binding ELISA signal, Anti-PSMA Fab in presence of PSMA antigen?
0.0804
